B1: VH:VL chains; a variant is named by its letters at X, in order (parent)
chain 1: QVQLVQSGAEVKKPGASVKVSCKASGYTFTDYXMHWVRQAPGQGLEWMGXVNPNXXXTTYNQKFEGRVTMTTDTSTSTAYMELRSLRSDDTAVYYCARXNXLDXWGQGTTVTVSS
chain 2: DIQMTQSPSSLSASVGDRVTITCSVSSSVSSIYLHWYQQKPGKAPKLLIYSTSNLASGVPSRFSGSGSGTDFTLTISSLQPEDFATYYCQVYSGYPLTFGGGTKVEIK

variants of: B1; assay: yeast display scFab, FACS + sequencing
test.readout: non-specific binding call

variant.key	test.readout	result
YRRRGYSS	non-specific binding call	binds
SKGEGDWA	non-specific binding call	no binding
VRGEGSWD	non-specific binding call	binds
YTAGSDWY	non-specific binding call	no binding
YRRRGVGV	non-specific binding call	binds
FRERGAGY	non-specific binding call	binds
DRTGDDVY	non-specific binding call	no binding
VTGTGSGD	non-specific binding call	no binding
VRGRDFGV	non-specific binding call	binds
YTRAGAAA	non-specific binding call	binds
DKTGDDVF	non-specific binding call	no binding
SEARSSAS	non-specific binding call	no binding
YRRGGSGA	non-specific binding call	binds
DAGGDDGA	non-specific binding call	no binding
YRRGASGV	non-specific binding call	binds
SGEGNSWA	non-specific binding call	no binding
YRGGSSGY	non-specific binding call	binds
YRGEGSAS	non-specific binding call	binds
YRGAGYAA	non-specific binding call	binds
VTAEDFGV	non-specific binding call	no binding
ATAGSASD	non-specific binding call	no binding
DEGGDAGD	non-specific binding call	no binding
YKGGSDVY	non-specific binding call	binds
YKRRDASD	non-specific binding call	binds
YRKGSAGD	non-specific binding call	binds
YRAKDALA	non-specific binding call	no binding
VGGTSDGV	non-specific binding call	no binding
VGGGGAAD	non-specific binding call	no binding
YKRGAAWS	non-specific binding call	binds
SEKEGDAA	non-specific binding call	no binding
YKGRGAGY	non-specific binding call	binds
VKRGSSGA	non-specific binding call	binds
YKGRAALY	non-specific binding call	binds
VEGAADVD	non-specific binding call	no binding
SEARSSSF	non-specific binding call	no binding
VAGGDDGA	non-specific binding call	no binding
VEGGGAGV	non-specific binding call	no binding
YTGTSSAD	non-specific binding call	no binding
YRARSAVV	non-specific binding call	binds
VEAGDDWV	non-specific binding call	no binding
YTRGADVV	non-specific binding call	no binding
YRGRTAAF	non-specific binding call	binds
VREGDDAV	non-specific binding call	no binding
VRRKDFLA	non-specific binding call	binds
DATGGDAD	non-specific binding call	no binding
YAEESDVA	non-specific binding call	no binding
